Attribution: the supplement of paper PMC9170038

Would you mind telling me the reported apparent KD of MS2 coat protein of each entry?
Tested on: MS2 coat protein
Assay: apparent KD of MS2 coat protein; higher = weaker reporter binding
Conditions: Eterna round: R107; input ligand: theophylline 20 uM
One number for each entry, in µM.

AAAUACAUGAGGAUCACCCAUGUCAAUAAUCGAGGACCGGUACGGCCGCCACUCGAUCGGCCAAGAAAAUGAAAGAUGAUCUCUA [theeternabot_sameState_MS2_Trp_A_8] | 0.0375

Give measured apparent KD of MS2 coat protein for every item shown.
1. UUCUUUAAGUCGGCCGCCACUGAAACAUGAGGAUCACCCAUGUAAAUUUGGGAGUAGGUAUAUUACAGGACCGGGACUAUAGUAA [JR_ExcTryptoB_Sub021]
2. UUAAUCAUAUUAGAAAACUAAUAUGCAGAAGGAGCGUGAUAAAACACAGGUAGGUCGCUGAAGGGAACAUGAGGAUCACCCAUGU [AstrosSSArgA#8]
3. AGUCUUAAAGGAAGGAGCGCAGUCAUAACAUGAGGAUCACCCAUGUCGAGGUGAGGGUCAUUGCAGGUAGGUCGCCUUACUAAGA [Same State - Arginine B (Freestyle 6)]
4. UAUAACAUGAGGAUCACCCAUGUAAGUGAUACCAGAUAAAUAAUAGUCCCUUGGCAGCAUAUUGGGAAAAUGUAUAAUAUAUAUU [Same State - Theophylline A (Freestyle 1)]

0.0312
0.0327
0.118
0.0721

Give measured apparent KD of MS2 coat protein for every item shown.
1. GGUGAUCCGUAUCACCGGAUCACCGGUGAUACCAGCAUCGAAAGAUGCCCUUGGCAGCACCAACAUGAGGAUCACCCAUGUAAUA [(M)'-(T)'-(M)''-(T1)-(T2)-(M1)-(M2)_Design6b]
2. ACAUGAGGAUCACCCAUGUAUUACCGGGAAGGAGCGCGUAAGGACGCAGGUAGGUCGCUCGGCGUCUGGCCGCAAGGCUGGACGA [#1 Same State - Arginine A Attempt #18 (HarryS)]
3. CAUUGUUAGACGGCCGCCACUUUUGGUUCGGAACGAUCGAUUGGACAUGAGGAUCACCCAUGUGGAAGGACCGGGUCUAAUCAAA [theeternabot_sameState_MS2_Trp_B_20]
4. AAAUAAACAUCGGCCGCCACUUACUCAUGAGGUAACAACAUGAGGAUCACCCAUGUUUGAGGAUCAAGGACCGGGAUGUAAUAAA [AstrosSSTryB#1]

[0.0624, 0.0213, 0.328, 0.0336]

Give measured apparent KD of MS2 coat protein for every item shown.
1. UAUAGUGUGAUGGAUACCAGCAGAGAAAACGUUUAUCCUAACAUGAGGAUCACCCAUGUAUGCCCUUGGCAGCUGUUGUGUUAUA [8.O]
2. CACAUGAGGAUCACCCAUGUCUGAACUGAAGGAGCGCUAAACAAGGCAGGUAGGUCGCGGAAUCCUGUGUGCAUAUGCACACGGG [9.W]
3. GGUGGCUCCAUCGAUACCAGCCACCACCGAUAGACCACAUGAGGAUCACCCAUGUUGGGUGGCCCUUGGCAGCGGUGAAGCUGCC [#1 Same State - Theophylline B Attempt #4 (HarryS)]
4. UGUCUAGUAAUCGAUACCAGCUACAUGAGGAUCACCCAUGUAGUUCGAACGGCCGCAUGUAGCCCUUGGCAGCGAAUAGUUACAU [Onbitelege]

[0.0425, 0.027, 0.416, 0.0328]
